Tested on: Staphylococcus aureus
assay.comment: Broth microdilution MIC/MBC against planktonic cells
Type: cell-based
condition.details: S. aureus clinical isolate 7 (F7), Met^r Oxa^r Gen^r
measure: MBC (µg/mL)
Kindly provide the numeric value in µg/mL only, without the unit symbol.

Which measured MBC value corresponds to O=C(/C=C/c1ccccc1)c1ccc(O)cc1O [DHC, 2′,4′-dihydroxychalcone] ?
100

Which measured MBC value corresponds to O=C1CC(c2ccccc2)Oc2cc(O)ccc21 (stereo not shown) [HF, 7-hydroxyflavanone] ?
200

Which measured MBC value corresponds to COc1c(O)ccc(C(=O)/C=C/c2ccccc2)c1O [DHMC, 2′,4′-dihydroxy-3′-methoxychalcone] ?
200
